Known TGI of a selection of molecules
System: IGROV1 ovarian
Experiment: NCI tumour cell line growth inhibition, 48 h
Respond numerically; units are µM and should not be typed.

Test system IGROV1 ovarian; read-out TGI; what value for COc1cccc(-n2c3nc(=O)n(C)c(=O)c-3nc3ccccc32)c1 ?
59.6

What is its TGI for IGROV1 ovarian? Entry: C=C1C(=O)CC2C(=O)C(C)(O)CC/C=C(\C)C(=O)CC12 (configuration not stated)
37.5

###

Tested on: HOP-62 NSCLC
Experiment: NCI tumour cell line growth inhibition, 48 h
Reported Metric: TGI

Before answering, review these 6 worked examples.
• CC1Cn2c(nc3ccccc32)NC1=O (centres undefined) = > 100 µM
• O=C1c2ccccc2C(=O)N1Cc1ccccc1-c1c2nc(c(-c3ccccc3CN3C(=O)c4ccccc4C3=O)c3ccc([nH]3)c(-c3ccccc3CN3C(=O)c4ccccc4C3=O)c3nc(c(-c4ccccc4CN4C(=O)c5ccccc5C4=O)c4ccc1[nH]4)C=C3)C=C2 = > 100 µM
• CN(C)c1ccc(C2SCC(=O)N2NS(=O)(=O)c2cccc(C(=O)O)c2)cc1 (centres undefined) = > 100 µM
• O=C(Cc1ccccc1)NN1C(=O)/C(=C\c2cccc(O)c2)SC1=Nc1ccccc1 = > 100 µM
• Nc1nc(SN=Nc2ccc(S(N)(=O)=O)cc2)c2[nH]cnc2n1 = > 100 µM
• Nc1ccn(C2(CO)C=C(CO)C(O)C2O)c(=O)n1 (centres undefined) = > 25.8 µM

Record COc1cc(Nc2c3ccccc3nc3ccccc23)ccc1NS(C)(=O)=O : what is its TGI with HOP-62 NSCLC?
24.3 µM

Give recorded TGI with HOP-62 NSCLC for the following compound: Cc1ccc(C2(O)CC(c3ccc([N+](=O)[O-])o3)=NN2C(=O)COc2ccc(Cl)cc2)cc1 (centres undefined)
18.2 µM

Give the reported TGI for N#CC(=NCCO)C1=C(O)c2ccccc2C1=O (system: HOP-62 NSCLC).
> 100 µM

###

Test system: KM12 colon
Assay: NCI tumour cell line growth inhibition, 48 h; in the data active = GI50 below about 0.43 µM; inactive = the rest
Respond using exactly one of the listed classes: 1 (yes) (active), 0 (no) (inactive)

Here's what some known entries look like.
• COc1ccc(-c2c[nH]c(=S)n2-c2ccc(OC)cc2)cc1 = 0 (no)
• Oc1cn(-c2ccc(Cl)cc2)nc1-c1n[nH]c(=S)n1C1CCCCC1 = 0 (no)
• Cc1cn2c(/C=C3\C(=O)N(C)c4ccc(O)cc43)c(C)nc2s1 = 0 (no)
• O=[N+]([O-])c1ccc2c(c1)C(c1ccccc1Cl)=Nc1cn[nH]c1N2 = 0 (no)
• NC(CS/C(Cl)=C/Cl)C(=O)O (stereo not given) = 0 (no)
• C[C@@]12CCCc3coc(c31)C(=O)c1cc3c(cc12)C(=O)C=CC3=O = 0 (no)

Fill in: this test's call for COc1ccc(C(=O)COc2cccc(/C=C3\Oc4ccc5ccccc5c4C3=O)c2)cc1 is ___
0 (no)

Record lookup: outcome of this test for CC(C)N=c1cc2n(-c3ccc(Cl)cc3)c3ccccc3nc-2cc1Nc1ccc(Cl)cc1 ?
0 (no)

Can you look up the reported call for O=C(/C=C/c1cc(CN2CCOCC2)c(O)c2ncccc12)c1cc(CN2CCOCC2)c(O)c2ncccc12 for me?
1 (yes)

Call for entry N.N.N.N.[Cl-].[Co+3].[N-]=[N+]=[N-].[N-]=[N+]=[N-] :
0 (no)
